System: NCI-H522
assay_summary: NCI tumour cell line growth inhibition, 48 h
The source made the active and inactive calls. Rule as the data show it: active = GI50 up to about 1.1 µM and inactive = higher. Where a SMILES comes first, the peptide text is derived from it. The star is where a group is joined. Boc = CC(C)(C)OC(=O)*; OSu = O=C1CCC(=O)N1O*
value_kind: GI50

compound=CN(C)C(=S)Nc1nnc(Nc2ccccc2)s1 reported="9.51 µM (inactive)"
compound=COc1ccc(C(=O)N(C(=O)N2CCN(c3ccccc3)CC2)S(=O)(=O)c2ccccc2)cc1 reported="15.4 µM (inactive)"
compound="CCOc1cc(C2CC(c3ccc(NS(=O)(=O)c4cc([N+](=O)[O-])ccc4C)cc3)=NN2C(=O)c2ccccc2)ccc1O (stereo not drawn)" reported="14.8 µM (inactive)"
compound=O=C(c1ccccc1)N1C(=S)NC(=N/c2ccccc2)/C1=N\c1ccccc1 reported="> 100 µM (inactive)"
compound="CC(=O)O[C@H]1C(=O)[C@@]2(C)C(C(OC(=O)c3ccccc3)[C@]3(O)CC(OC(=O)C(O)C(NC(=O)c4ccccc4)c4cccc(Cl)c4)C(C)=C1C3(C)C)[C@]1(OC(C)=O)CO[C@@H]1C[C@@H]2O (stereo partly drawn)" reported="3.18 µM (inactive)"

Give one value of GI50 per listed compound.
1. CC1(C)C(=O)N(c2ccccc2)C(=O)N1c1nc2ccccc2[nH]1
2. O=c1c2cc3c(cc2[nH]c2ncccc12)OCO3
3. CC(NC(=O)C(NC(=O)OC(C)(C)C)C(C)C)C(=O)NCC(=O)ON1C(=O)CCC1=O (stereo not drawn) (Boc-Val-Ala-Gly-OSu; configuration not given here)

Out:
1. 54.7 µM (inactive)
2. > 10 µM (inactive)
3. 63.4 µM (inactive)
